Ref: PubChem BioAssay AID770

growth inhibition values for the compounds below.
- PROCEDURE_SUMMARY: HT29 colon tumor cell growth inhibition, primary screen, imaging, high content imaging, 24 h, CellTiter-Glo (AID 770)
- PROTOCOL_CONDITIONS: HT29 cell number by imaging, at 10 µM, hits give high values
The campaign covered roughly 3,300 compounds. Fewer than 10 were called active. A selection follows.
Reply numerically in %, unit not repeated.

Inquiry: Output measured growth inhibition for this item: CN(C)CCCN(CCCNC(=O)/C=N/O)Cc1ccccc1
Reply text: -11.9

Inquiry: Supply measured growth inhibition of CCN(CC)c1ccc(C2Nc3cccc4cccc(c34)N2)c(O)c1 in your reply.
Reply text: 39.6

Inquiry: Provide only the value of recorded growth inhibition for O=C(c1ccco1)N1CCN(CCOCCOc2cccc3ccccc23)CC1
Reply text: -0.64

Inquiry: Dear colleague, please send me the reported growth inhibition for CCOc1ccc(-n2c(SCc3ccc(C#N)cc3)nnc2-c2cccnc2)cc1 when you can.
Reply text: 17.1

Inquiry: Recall and state the measured growth inhibition for CNC(=O)CC(C(=O)O)c1ccc(OC(C)C)cc1 (stereo unspecified) .
Reply text: 14

Field: next compound
Inquiry: Quick one: give measured growth inhibition for O=C1C2ON(c3ccccc3)C(c3cccnc3)C2C(=O)N1Cc1ccccc1 (stereo unspecified)
Reply text: 13.7
